Catalogue of compounds with associated pIC50
target: UniProtKB O43613; assay: Orexin antagonist activity, intracellular calcium FLIPR assay, RBL-2H3 cells expressing human orexin receptor 1; details: RBL-2H3 cells stably expressing human orexin receptor 1; orexin-A at approx. 80% maximal response; compound added 15 minutes before; read-out: Human Orexin1R IC50
Sequence (O43613 whole entry): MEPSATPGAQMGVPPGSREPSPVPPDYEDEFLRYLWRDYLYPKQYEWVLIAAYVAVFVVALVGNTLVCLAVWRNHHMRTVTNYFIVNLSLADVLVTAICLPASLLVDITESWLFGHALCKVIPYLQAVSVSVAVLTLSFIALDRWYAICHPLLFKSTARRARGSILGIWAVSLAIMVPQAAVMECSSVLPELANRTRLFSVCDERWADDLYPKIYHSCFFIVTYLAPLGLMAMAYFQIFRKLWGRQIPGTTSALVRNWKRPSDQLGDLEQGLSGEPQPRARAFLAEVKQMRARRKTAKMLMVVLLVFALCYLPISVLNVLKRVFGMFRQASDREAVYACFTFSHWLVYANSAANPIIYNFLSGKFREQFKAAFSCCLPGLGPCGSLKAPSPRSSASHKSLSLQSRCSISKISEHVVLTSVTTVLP
Remember, pIC50 is on a log scale: it is -log10 of the molar concentration.

{"compound": "O=C(N[C@H]1CCC[C@H]1Oc1cnc(C(F)(F)F)cn1)c1ccccc1-n1nccn1 [Example 19]", "pIC50": 6.12}
{"compound": "O=C(N[C@H]1CCC[C@@H]1Nc1ccc(Br)cn1)c1ccccc1-n1nccn1 [Example 118]", "pIC50": 6.43}
{"compound": "Cc1nc(C(F)(F)F)cnc1N[C@H]1CCC[C@@H]1NC(=O)c1ncccc1-c1ncccn1 [Example 159]", "pIC50": 7.60}
{"compound": "CC(C)c1cnc(N[C@H]2CCC[C@@H]2NC(=O)c2ccccc2-n2nccn2)cn1 [Example 113]", "pIC50": 7.17}
{"compound": "Cc1nc(C(F)(F)F)cnc1N[C@H]1CCC[C@@H]1NC(=O)c1ccccc1-c1ncccn1 [Example 79]", "pIC50": 7.46}
{"compound": "O=C(NC1CC(F)(F)CC1Nc1cnc(C(F)(F)F)cn1)c1ccccc1-n1nccn1 (centres unmarked) [Example 126]", "pIC50": 6.92}
{"compound": "O=C(N[C@H]1CCC[C@@H]1Nc1cnc(C(F)(F)F)cn1)c1cc(F)ccc1-n1cccn1 [Example 47]", "pIC50": 6.35}

Consider the record given below.
Query: For Cc1ccc(-n2ccnn2)c(C(=O)N[C@H]2CCC[C@@H]2Nc2cnc(C(F)(F)F)cn2)c1 [Example 42] , what is its reported pIC50?
Response: 6.58
